B1: LINE1-full (parent)
chain: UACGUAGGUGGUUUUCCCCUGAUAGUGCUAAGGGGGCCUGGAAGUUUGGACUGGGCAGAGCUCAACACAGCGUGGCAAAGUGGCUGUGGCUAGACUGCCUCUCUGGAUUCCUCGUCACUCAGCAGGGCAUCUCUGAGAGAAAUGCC

Variants of: B1
protocolDetails: self-cleavage, relative activity (ratio to wild type); higher = more cleavage; in vitro, sequencing; the parent is a self-cleaving ribozyme

variantName	self-cleavage
A69U C131A	0.07
U23A C120A	0.82
U9C G106A	1.71
C28A A117G	0.74
C3A A121U	0.58
G34A A107U	1.2
U73A U132G	2.06
G55A A107G	0.22
U52C A121C	1.92
U81A G83U	1.3
A59G C123U	0.05
C56G A92U	0.04
A24U U96C	0.07
A42G U52A	1.52
U96A A138U	0.1
U23A C146U	1.27
A50U U91A	0.34
U52A U96A	0.07
A30G U45A	1.53
G49A G82U	1.49
U1A U87A	0.13
U29C C63U	0.48
